assay: Partitioning of active into washed safflower oil bodies (free oil / total oil extraction, HPLC or absorbance); format: physicochemical, safflower (Carthamus tinctorius); set-up: concentration or dose not given beside the values; details: two-solvent loading, incubated overnight at 34-37° C. (CP 34-42° C.)
observed.property: level of active incorporated into the oil bodies as a percentage of dry weight (%)

compound	endpoint.result
O=C1c2c(O)cccc2Cc2cccc(O)c21 [dithranol, 1,8-Dihydroxy-9(10H)-anthracenone]	0.253

(P) CCC(=O)O[C@]1(C(=O)CCl)[C@@H](C)C[C@H]2[C@@H]3CCC4=CC(=O)C=C[C@]4(C)[C@@]3(F)[C@@H](O)C[C@@]21C [clobetasol propionate]
(Q) O=C(O)Cc1ccccc1Nc1c(Cl)cccc1Cl
(R) CCCCNc1ccc(C(=O)OCCN(C)C)cc1
Highest level of active incorporated into the oil bodies as a percentage of dry weight first, then in falling order down to the smallest. I'd appreciate it if you listed the labels in the requested order.
R, Q, P
